Listed below: MIC80 values for each entry.
# Test system: Kluyveromyces marxianus
# test-summary: Antifungal activity against Kluyveromyces marxianus assessed as growth inhibition by NCCLS microbroth dilution method
# Assay type: functional
readout: MIC80

>  <structure-as-smiles>
Cc1cc(=O)oc2cc(Oc3ccc(NC(=O)c4cccs4)cn3)ccc12

>  <result>
32 mg/L

$$$$
>  <structure-as-smiles>
Cc1cc(=O)oc2cc(Oc3ccc(NC(=O)c4cccnc4)cn3)ccc12

>  <result>
16 mg/L

$$$$
>  <structure-as-smiles>
Cc1cc(=O)oc2cc(O)ccc12

>  <result>
> 64 mg/L

$$$$
>  <structure-as-smiles>
Cc1cc(=O)oc2cc(Oc3ccc(NC(=O)Cc4c[nH]c5ccccc45)cn3)ccc12

>  <result>
> 64 mg/L

$$$$
>  <structure-as-smiles>
Cc1cc(=O)oc2cc(Oc3ccc(N)cn3)ccc12

>  <result>
> 64 mg/L

$$$$
>  <structure-as-smiles>
Cc1cc(=O)oc2cc(Oc3ccc(NC(=O)CC#N)cn3)ccc12

>  <result>
16 mg/L

$$$$
>  <structure-as-smiles>
Cc1cc(=O)oc2cc(Oc3ccc(NC(=O)Cc4ccccc4)cn3)ccc12

>  <result>
> 64 mg/L

$$$$
>  <structure-as-smiles>
Cc1cc(=O)oc2cc(Oc3ccc(NC(=O)C4CC4)cn3)ccc12

>  <result>
32 mg/L

$$$$
>  <structure-as-smiles>
Cc1cc(=O)oc2cc(Oc3ccc([N+](=O)[O-])cn3)ccc12

>  <result>
> 64 mg/L

$$$$
>  <structure-as-smiles>
Cc1cc(=O)oc2cc(Oc3ccc(NC(=O)c4ccccc4)cn3)ccc12

>  <result>
32 mg/L

$$$$
>  <structure-as-smiles>
Cc1cc(=O)oc2cc(Oc3ccc(NC(=O)c4ccco4)cn3)ccc12

>  <result>
16 mg/L

$$$$
>  <structure-as-smiles>
C[C@@H]1[C@H](O)[C@@H](C)/C=C/C=C/C=C/C=C/C=C/C=C/C=C/[C@H](O[C@@H]2O[C@H](C)[C@@H](O)[C@H](N)[C@@H]2O)C[C@@H]2O[C@](O)(C[C@@H](O)C[C@@H](O)[C@H](O)CC[C@@H](O)C[C@@H](O)CC(=O)O[C@H]1C)C[C@H](O)[C@H]2C(=O)O

>  <result>
0.25 mg/L

$$$$
>  <structure-as-smiles>
Cc1cc(=O)oc2cc(Oc3ccc(NC(=O)C(F)(F)F)cn3)ccc12

>  <result>
32 mg/L

$$$$
>  <structure-as-smiles>
Cc1cc(=O)oc2cc(Oc3ccc(NC(=O)/C=C/c4ccccc4)cn3)ccc12

>  <result>
16 mg/L

$$$$
>  <structure-as-smiles>
Cc1cc(=O)oc2cc(Oc3ccc(NC(=O)c4ccccn4)cn3)ccc12

>  <result>
16 mg/L

$$$$
>  <structure-as-smiles>
OC(Cn1cncn1)(Cn1cncn1)c1ccc(F)cc1F

>  <result>
4 mg/L

$$$$
>  <structure-as-smiles>
CC(=O)Nc1ccc(Oc2ccc3c(C)cc(=O)oc3c2)nc1

>  <result>
16 mg/L

$$$$
>  <structure-as-smiles>
Cc1cnc(C(=O)Nc2ccc(Oc3ccc4c(C)cc(=O)oc4c3)nc2)cn1

>  <result>
4 mg/L

$$$$
>  <structure-as-smiles>
Cc1cc(=O)oc2cc(Oc3ccc(NC(=O)c4ccncc4)cn3)ccc12

>  <result>
8 mg/L

$$$$
>  <structure-as-smiles>
Cc1cc(=O)oc2cc(Oc3ccc(NC(=O)c4cnccn4)cn3)ccc12

>  <result>
16 mg/L

$$$$
>  <structure-as-smiles>
Cc1cc(=O)oc2cc(Oc3ccc(NC(=O)CN(C)C)cn3)ccc12

>  <result>
32 mg/L

$$$$
>  <structure-as-smiles>
Cc1cc(=O)oc2cc(Oc3ccc(NC(=O)C4CCCCC4)cn3)ccc12

>  <result>
> 64 mg/L

$$$$
>  <structure-as-smiles>
Cc1cc(=O)oc2cc(Oc3ccc(NC(=O)C(C)(C)C)cn3)ccc12

>  <result>
16 mg/L

$$$$
